Dear all, this message contains IC50 results, target or system Epidermal growth factor receptor (Homo sapiens, UniProt P00533).
measure: IC50 (nM)

C[C@@H](Nc1ncnc2sc(-c3ccc(S(C)(=O)=O)cc3)cc12)c1ccccc1 | 41
COc1cccc(OC)c1-c1cc2c(N[C@H](CO)c3ccccc3)ncnc2s1 | 0.9
COc1cc(C=O)ccc1-c1cc2c(Nc3ccc(F)c(Cl)c3)ncnc2s1 | 5
COc1c(C=O)cccc1-c1cc2c(N[C@H](C)c3ccccc3)ncnc2s1 | 21
C#Cc1cccc(Nc2ncnc3sc(-c4ccc(CO)cc4OC)cc23)c1 | 5
C[C@@H](Nc1ncnc2sc(-c3ccc(C(=O)O)cc3)cc12)c1ccccc1 | 19

(A) COc1cc(F)ccc1-c1cc2c(N[C@H](C)c3ccccc3)ncnc2s1
(B) COc1cc(CO)ccc1-c1cc2c(Nc3ccccc3)ncnc2s1
Exercise: Two entries are listed, A and B . Which one carries the higher IC50? Your answer should be the label attached to the chosen record.
Key: B
(B: 14 nM, A: 6 nM)
